System: UO-31 renal
Assay: NCI tumour cell line growth inhibition, 48 h
In this section we review reported TGI values for a set of compounds.
Use µM as the unit, but write only the number.

These recorded examples may help you get a feel for the data.
compound | assay system | measured value
COC(=O)C12Oc3ccc(-c4ccc5c(c4O)C(=O)C4=CCC(C)C(O)C4(C(=O)OC)O5)c(O)c3C(=O)C1=CCC(C)C2O (stereo not given) | UO-31 renal | 2.79
Cc1ccc(CNc2c3ccccc3nc3ccccc23)cc1 | UO-31 renal | 3.17

Lab note: CC(=O)O/C=C\OC1CCCC1(c1ccccc1)c1ccccc1 (stereo not given) gave TGI of 3.61

Lab note: "COC(=O)/C=C\Sc1ccn(/C=C\C(=O)OC)c(=S)n1" gave TGI of 50.5

====

Tested on: IGROV1 ovarian
Test: NCI tumour cell line growth inhibition, 48 h; in the data active means GI50 below about 0.43 µM; inactive means the rest
Outcome field: choose from T = active, F = inactive

Please review the entries below; each comes with its answer.
molecule | label class
COc1ccc(-c2nn3ncccc3c2-c2ccnc(Nc3ccc(Cl)c(C(F)(F)F)c3)n2)cc1 | F
CCOC(=O)c1c2c(n3ccc(NC(=O)CCN4CCCC4)cc13)C(=O)c1ncccc1C2=O | F
COc1nc(N(C)O)nc(N(C)O)n1 | F
COc1ccc2c(c1)/C(=C\c1c(C)nc3sc(C)cn13)C(=O)N2C | F
COc1ccc(N=C2CSc3nnc(-c4cc(F)c(Cl)cc4Cl)n3N2)cc1 | T

Proceed to the following item.
Prompt: Name the outcome recorded for "CNC(P(=O)([O-])[O-])P(=O)([O-])[O-].N.N.[Pt+2]" in the assay.
Completion: F

====

Test system: MDA-MB-231 breast
Assay: NCI tumour cell line growth inhibition, 48 h
result type: TGI

These recorded examples may help you get a feel for the data.
compound | TGI
CC1(C)OC2OC(COC(=O)C=[N+]=[N-])C3OC(C)(C)OC3C2O1 (stereo unspecified) | > 100 µM
COc1cc(-c2nc3cc(F)ccc3s2)ccc1O | > 100 µM
CC(C)(CO)CNc1cc(=O)[nH]c(N)n1 | > 100 µM

Lab note: "C=CCn1c2c(c3ccccc3c1=O)C(=O)c1ccccc1-2" gave TGI of > 100 µM

Lab note: "COc1ccc(Cl)cc1Nc1nc(C(F)(F)F)ccc1C(=O)N/N=C/c1c(Cl)cccc1Cl" gave TGI of > 100 µM

Lab note: "Cn1ccnc1Sc1ccc(/C=N/NC(=O)c2ccccc2O)cc1[N+](=O)[O-]" gave TGI of > 100 µM

Lab note: "CS(=O)(=O)CCNCc1nc(-c2ccc3ncnc(Nc4ccc(F)c(Cl)c4)c3c2)cs1" gave TGI of > 25 µM

Lab note: "CC(=O)NCCCCNCCCNC(C)=O" gave TGI of > 100 µM

Lab note: CCOc1cc2ncc(C#N)c(Nc3ccc(OCc4cccc(F)c4)c(Cl)c3)c2cc1NC(=O)CC1CCSS1 (stereo unspecified) gave TGI of > 25 µM

Lab note: "N#CC1=C2Sc3ccccc3N2[C@H](c2ccccc2)[C@H]2COC(=O)[C@@H]12" gave TGI of > 100 µM

Lab note: "Oc1ccc(/C=C\c2nnc(/C=C\c3ccc(O)c(O)c3)s2)cc1O" gave TGI of 56.2 µM

====

Tested on: OVCAR-4 ovarian
Assay: NCI tumour cell line growth inhibition, 48 h; in the data active = GI50 below about 0.43 µM; inactive = the rest
Outcome field: choose from active, inactive

Please review the entries below; each comes with its answer.
compound | label class
O=c1oc2cc(OS(=O)(=O)c3ccc(F)cc3)ccc2c2c1CCCCC2 | inactive
CCN(CC)CCOc1nc2ccc(OC)cc2c2c1-c1ccc(OC)cc1C2=O | inactive
C=C1CC2(OC1=O)C(=O)N(CCCCCCCN1C(=O)C3(CC(=C)C(=O)O3)c3ccccc31)c1ccccc12 (stereo not given) | inactive
COc1cc(-c2nn(-c3ccc(NC(=O)c4ccc(Cl)c(Cl)c4)cc3)cc2-c2ccncc2)ccc1Cl | inactive
O=C1NCc2ccc3c(-c4cccc(Cl)c4)c[nH]c3c21 | inactive
CCC[CH2][Sn-]([CH2]CCC)([CH2]CCC)[O]c1cc(Cl)c(Cl)cc1Cl | active
C[C@@H]1C[C@@H](O)[C@]2(O)O[C@@H]3C[C@@]4(C=O)[C@@H](CC[C@@H]5[C@@H]4CC[C@]4(C)[C@@H](C6=CC(=O)OC6)CC[C@]54O)C[C@H]3O[C@@H]2O1 | active
COc1cc(C2C=C(c3cccc(NC(C)=O)c3)Nc3ncnn32)cc(OC)c1OC (stereo not given) | inactive

Prompt: Name the outcome recorded for "Cc1c2c(nn1-c1ccc(S(=O)(=O)NC(=S)Nc3ccccc3)cc1)-c1ccccc1CC2" in the assay.
Completion: inactive

Prompt: Name the outcome recorded for "Cc1cc(-c2ncc(CC(=O)Nc3ccc(-c4cnccn4)cn3)cc2C)ccn1" in the assay.
Completion: inactive

Prompt: Name the outcome recorded for "CNC(P(=O)([O-])[O-])P(=O)([O-])[O-].N.N.[Pt+2]" in the assay.
Completion: inactive

Prompt: Name the outcome recorded for "COc1cc(O)c([C@@H]2C[C@H](CCc3ccc(O)cc3)O[C@H](c3ccc(O)cc3)C2)c(O)c1C(=O)/C=C/c1ccc(O)cc1" in the assay.
Completion: inactive

Prompt: Name the outcome recorded for "CC(=O)Nc1ccc2c(c1)c(C1=C(c3cn(C)c4ccccc34)C(=O)NC1=O)cn2C" in the assay.
Completion: inactive

Prompt: Name the outcome recorded for "COc1ccc2c(c1)/C(=C\c1c(C)nc3sc(C)cn13)C(=O)N2C" in the assay.
Completion: inactive
